Test system: coxsackie B2 virus
assay explanation: Antiviral CPE assay in mammalian cell culture
Assay type: cell-based
test parameters: read-out: inhibition capacity (IC50) B2
pIC50: −log10 of the molar value.
For each record, write down the corresponding pIC50.

Briefly, pIC50 measured for COC(=O)NS(=O)(=O)c1ccc(CNc2nc(C)nc3c(-c4ccc(OC)c(OC)c4)c(C)nn23)cc1 : > 6.00

The molecule listed as COc1ccc(-c2c(C)nn3c(NCc4cnc(C)nc4)nc(C)nc23)cc1OC has a reported pIC50 of > 6.00

Form: molecule = COc1ccc(-c2c(C)nn3c(NCc4ccccc4)nc(C)nc23)cc1OC ; pIC50 = > 7.00

Record COc1ccc(-c2c(C)nn3c(NCc4cc[n+]([O-])cc4)nc(C)nc23)cc1OC . Reported pIC50: > 6.00

Lab note: measured pIC50 of COc1ccc(-c2c(C)nn3c(NCc4ccc5c(c4)OCO5)nc(C)nc23)cc1OC was > 7.00

pIC50 recorded for this molecule, COc1ccc(-c2c(C)nn3c(NCc4ccn(C)n4)nc(C)nc23)cc1OC , is > 8.00

Noted for COc1ccc(-c2c(C)nn3c(NCc4ccc(C(F)(F)F)cc4)nc(C)nc23)cc1OC : its pIC50 reads > 7.00

Record summary for COc1ccc(-c2c(C)nn3c(NCc4ccc(C(C)C)cc4)nc(C)nc23)cc1OC : reported pIC50 = > 6.00

Looking up CCC(=O)NS(=O)(=O)c1ccc(CNc2nc(C)nc3c(-c4ccc(OC)c(OC)c4)c(C)nn23)cc1 , I see its pIC50 listed as < 6.00

For reference, reported pIC50 for COc1ccc(-c2c(C)nn3c(NCc4ccc(C)cc4)nc(C)nc23)cc1OC stands at > 7.00

Form: molecule = COc1ccc(-c2c(C)nn3c(NCc4ccc(NS(C)(=O)=O)cc4)nc(C)nc23)cc1OC ; pIC50 = > 7.00

The measured pIC50 associated with COc1ccc(-c2c(C)nn3c(NCc4ccccn4)nc(C)nc23)cc1OC reads > 7.00

Please fill in: pIC50 reported for COc1ccc(-c2c(C)nn3c(NCC4CCNCC4)nc(C)nc23)cc1OC = < 6.00

pIC50 reading for COc1ccc(-c2c(C)nn3c(NCCc4ccc(Cl)cc4)nc(C)nc23)cc1OC : > 6.00

COc1ccc(-c2c(C)nn3c(NCc4ccc(Cl)cc4)nc(C)nc23)cc1OC yielded pIC50 of > 7.00

Summary for this molecule, COc1ccc(-c2c(C)nn3c(NCc4ccc(S(N)(=O)=O)cc4)nc(C)nc23)cc1OC : pIC50 is > 7.00

# pIC50 (molecule: COc1ccc(-c2c(C)nn3c(NCc4cccnc4)nc(C)nc23)cc1OC ) is > 7.00

Value of pIC50 reported for the molecule COc1ccc(CNc2nc(C)nc3c(-c4ccc(OC)c(OC)c4)c(C)nn23)cc1 is > 7.00

According to the records, this molecule COc1ccc(-c2c(C)nn3c(NCc4cccc(S(C)(=O)=O)c4)nc(C)nc23)cc1OC displays pIC50 of > 8.00

For reference, reported pIC50 for CNS(=O)(=O)c1ccc(CNc2nc(C)nc3c(-c4ccc(OC)c(OC)c4)c(C)nn23)cc1 stands at > 7.00
